Parameter: EC50. Scope: all listed entries.
# target-under-test: recombinant human NKG2D-ECD-Fc (extracellular domain of NKG2D fused to human Fc) (human) (UniProt P26718)
# Sequence (P26718 73-216): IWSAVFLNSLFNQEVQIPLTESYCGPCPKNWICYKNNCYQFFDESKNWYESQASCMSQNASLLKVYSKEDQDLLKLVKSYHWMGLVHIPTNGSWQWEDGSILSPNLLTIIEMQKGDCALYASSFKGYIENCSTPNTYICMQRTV
# procedure-details: ELISA on coated NKG2D-ECD-Fc
Use nM as the unit, but write only the number.

binder: IM1244 CD3x5T4x NKG2D-cl-1 (L-H) (protein, part only; not given: anti-CD3 Fab, anti-5T4 scFv, linkers, not shown: another chain or arm of the molecule; small tags and cut ends) VL: DIVLTQSPASLAVSLGQRAIISCKASQSVSFAGSNLMHWYQQKPGQQPKLLIYRASNLEVGVPTRFSGSGSGTDFTLNIHPVDEDDAATYYCQQSREYPFTFGSGTKLEIK VH: EVQLQQSGPELVKPGASVKISCKASAFNFTSYYLHWVKQGPGQGLEWIGWIYPGSGDTKYNEKFKGKATLTADTSSSAANMKLSSLTSEDSAVYYCARNRIFDSYYVDSMDYWGQGTSVTVSS
number: 2.6
--
binder: IM1245 CD3x5T4x NKG2D-cl-1 (H-L) (protein, part only; not given: anti-CD3 Fab, anti-5T4 scFv, linkers, not shown: another chain or arm of the molecule; small tags and cut ends) VH: EVQLQQSGPELVKPGASVKISCKASAFNFTSYYLHWVKQGPGQGLEWIGWIYPGSGDTKYNEKFKGKATLTADTSSSAANMKLSSLTSEDSAVYYCARNRIFDSYYVDSMDYWGQGTSVTVSS VL: DIVLTQSPASLAVSLGQRAIISCKASQSVSFAGSNLMHWYQQKPGQQPKLLIYRASNLEVGVPTRFSGSGSGTDFTLNIHPVDEDDAATYYCQQSREYPFTFGSGTKLEIK
number: 1.1
--
binder: IM1248 CD3x5T4x NKG2D-cl-10 (L-H) (protein, part only; not given: anti-CD3 Fab, anti-5T4 scFv, linkers, not shown: another chain or arm of the molecule; small tags and cut ends) VL: DIVLTQSPASLAMSLGKRATISCRASESVSIMGTNLINWYQQKLGQPPKLLIYHASNLETGVPARFSGSGSRTDFTLTIDPVEEDDVAVYYCLQGRKIPRTFGGGTKLEIK VH: QVQLQQPGAELVKPGASVKLSCKASGYTFTTYWIQWIKQRPGQGLEWIGEIDPSDIFTNYNQKFKGKATLTVDTSSSTAYMQLSSLTSEDSAVYYCARGVYDGYYVGYFDVWGTGTTVTVSS
number: 1.7

EC50 in this record for IM1249 CD3x5T4x NKG2D-cl-10 (H-L) (protein, part only; not given: anti-CD3 Fab, anti-5T4 scFv, linkers, not shown: another chain or arm of the molecule; small tags and cut ends) VH: QVQLQQPGAELVKPGASVKLSCKASGYTFTTYWIQWIKQRPGQGLEWIGEIDPSDIFTNYNQKFKGKATLTVDTSSSTAYMQLSSLTSEDSAVYYCARGVYDGYYVGYFDVWGTGTTVTVSS VL: DIVLTQSPASLAMSLGKRATISCRASESVSIMGTNLINWYQQKLGQPPKLLIYHASNLETGVPARFSGSGSRTDFTLTIDPVEEDDVAVYYCLQGRKIPRTFGGGTKLEIK : 0.7
